# System: HeLa
# test-protocol: cell viability (CellTiter-Glo) relative to median of lowest-dilution wells of all drugs (fraction); higher = more viable cells
# experimental-parameters: drug concentration (unit not stated): 1.11; genotype: control (DDX11 wild type)
value-type: cell viability

1) CO[C@H]1C[C@@H]2CC[C@@H](C)[C@@](O)(O2)C(=O)C(=O)N2CCCC[C@H]2C(=O)O[C@H]([C@H](C)C[C@@H]2CC[C@@H](O)[C@H](OC)C2)CC(=O)[C@H](C)/C=C(\C)[C@@H](O)[C@@H](OC)C(=O)[C@H](C)C[C@H](C)/C=C/C=C/C=C/1C [Rapamycin (Sirolimus)]: 0.878
2) O=c1[nH]c(=O)n([C@H]2C[C@H](O)[C@@H](CO)O2)cc1F: 0.874
3) COc1cc(Nc2ncc3c(n2)-c2ccc(Cl)cc2C(c2c(F)cccc2OC)=NC3)ccc1C(=O)O: 0.919

Values from the supplement of paper PMC8092582
